# target_entity: T1, 4H855-bN
# T1 chain: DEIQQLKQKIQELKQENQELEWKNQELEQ
# protocol_text: two-hybrid library CCNG1;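 note: natural log of median RNA to DNA barcode read ratio; higher means stronger binding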
Parameter threshold = -0.5. Response is T when interaction score meets or exceeds it, else F.

binder | class_name
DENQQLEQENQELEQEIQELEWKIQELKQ [4H1158-bN] | T

Form field: interaction score at least -0.5? Entry: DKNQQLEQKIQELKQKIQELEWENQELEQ [4H3427-bN]
F

Then DEIQQLKQENQELEQKIQELKWENQELEQ [4H683-bN] ?
T

Then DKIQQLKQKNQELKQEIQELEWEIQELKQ [4H3010-bN] ?
F

Then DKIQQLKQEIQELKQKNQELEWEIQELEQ [4H2673-bN] ?
F

Then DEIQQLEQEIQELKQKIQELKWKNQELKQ [4H112-bN] ?
F

Then DKNQQLKQKNQELKQKIQELKWEIQELEQ [4H4073-bN] ?
F

Then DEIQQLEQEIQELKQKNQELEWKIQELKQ [4H118-bN] ?
T

Then DKNQQLKQKIQELKQENQELEWKIQELKQ [4H3926-bN] ?
F

Then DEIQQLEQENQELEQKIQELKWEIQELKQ [4H170-bN] ?
T

Then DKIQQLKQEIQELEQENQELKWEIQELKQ [4H2586-bN] ?
F

Then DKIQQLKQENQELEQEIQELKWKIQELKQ [4H2702-bN] ?
F

Then DEIQQLKQKIQELEQEIQELKWENQELKQ [4H780-bN] ?
F

Then DEIQQLKQEIQELEQKNQELKWKNQELEQ [4H575-bN] ?
T

Values from paper PMC10397247
